This collection of values is drawn from patent US20240132624A1.

# system-name: T1, human FcRn/b2M (human, UniProt P61769 21-119, biotinylated)
# T1 construct: bought recombinant biotinylated protein (ACRO FCM-H82W4 or Immunitrack ITF01); also called hFcRn; hFcRn/hb2M
# assay: SPR pH 7.4;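 further: surface plasmon resonance kinetics, periplasmic extracts diluted 1:10 flowed over immobilized target at 25 °C, 120 s association then 600–3600 s dissociation, buffer with 150 mM NaCl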
attribute-measured: koff (s⁻¹)

# annotated cases, reported koff shown
T0263018B11 T28Y (VHH, name in Kabat numbering, FLAG3-His6 tagged) VHH: EVQLVESGGGVVQPGGSLRLSCAASGFYFSSYAMYWVRQAPGKGLEWVSAISSGGGSTDYADSVKGRFTISRDNSKNTLYLQMNSLRPEDTALYYCAADTLYTSLTWYSYWGQGTLVTVSS	0.071
T0263018B11 A33G (VHH, name in Kabat numbering, FLAG3-His6 tagged) VHH: EVQLVESGGGVVQPGGSLRLSCAASGFTFSSYGMYWVRQAPGKGLEWVSAISSGGGSTDYADSVKGRFTISRDNSKNTLYLQMNSLRPEDTALYYCAADTLYTSLTWYSYWGQGTLVTVSS	0.034
T0263018B11 T28L (VHH, name in Kabat numbering, FLAG3-His6 tagged) VHH: EVQLVESGGGVVQPGGSLRLSCAASGFLFSSYAMYWVRQAPGKGLEWVSAISSGGGSTDYADSVKGRFTISRDNSKNTLYLQMNSLRPEDTALYYCAADTLYTSLTWYSYWGQGTLVTVSS	0.073
T0263018B11 S52G (VHH, name in Kabat numbering, FLAG3-His6 tagged) VHH: EVQLVESGGGVVQPGGSLRLSCAASGFTFSSYAMYWVRQAPGKGLEWVSAIGSGGGSTDYADSVKGRFTISRDNSKNTLYLQMNSLRPEDTALYYCAADTLYTSLTWYSYWGQGTLVTVSS	0.012
T0263018B11 S52R (VHH, name in Kabat numbering, FLAG3-His6 tagged) VHH: EVQLVESGGGVVQPGGSLRLSCAASGFTFSSYAMYWVRQAPGKGLEWVSAIRSGGGSTDYADSVKGRFTISRDNSKNTLYLQMNSLRPEDTALYYCAADTLYTSLTWYSYWGQGTLVTVSS	0.44

(1) T0263018B11 A33P (VHH, name in Kabat numbering, FLAG3-His6 tagged) VHH: EVQLVESGGGVVQPGGSLRLSCAASGFTFSSYPMYWVRQAPGKGLEWVSAISSGGGSTDYADSVKGRFTISRDNSKNTLYLQMNSLRPEDTALYYCAADTLYTSLTWYSYWGQGTLVTVSS
(2) T0263018B11 S101A (VHH, name in Kabat numbering, FLAG3-His6 tagged) VHH: EVQLVESGGGVVQPGGSLRLSCAASGFTFSSYAMYWVRQAPGKGLEWVSAISSGGGSTDYADSVKGRFTISRDNSKNTLYLQMNSLRPEDTALYYCAADTLYTSLTWYAYWGQGTLVTVSS
Form: Entry with minimum koff (choose one): 1 / 2 Indicate which entry you chose by stating its label.
1
(1: 0.041 s⁻¹, 2: 0.062 s⁻¹)

(1) T0263018B11 T57W (VHH, name in Kabat numbering, FLAG3-His6 tagged) VHH: EVQLVESGGGVVQPGGSLRLSCAASGFTFSSYAMYWVRQAPGKGLEWVSAISSGGGSWDYADSVKGRFTISRDNSKNTLYLQMNSLRPEDTALYYCAADTLYTSLTWYSYWGQGTLVTVSS
(2) T0263018B11 A33V (VHH, name in Kabat numbering, FLAG3-His6 tagged) VHH: EVQLVESGGGVVQPGGSLRLSCAASGFTFSSYVMYWVRQAPGKGLEWVSAISSGGGSTDYADSVKGRFTISRDNSKNTLYLQMNSLRPEDTALYYCAADTLYTSLTWYSYWGQGTLVTVSS
(3) T0263018B11 D58H (VHH, name in Kabat numbering, FLAG3-His6 tagged) VHH: EVQLVESGGGVVQPGGSLRLSCAASGFTFSSYAMYWVRQAPGKGLEWVSAISSGGGSTHYADSVKGRFTISRDNSKNTLYLQMNSLRPEDTALYYCAADTLYTSLTWYSYWGQGTLVTVSS
Descending sort on koff required. Give your ranking as a list of the labels in the requested order.
3, 1, 2

(A) T0263018B11 G26N (VHH, name in Kabat numbering, FLAG3-His6 tagged) VHH: EVQLVESGGGVVQPGGSLRLSCAASNFTFSSYAMYWVRQAPGKGLEWVSAISSGGGSTDYADSVKGRFTISRDNSKNTLYLQMNSLRPEDTALYYCAADTLYTSLTWYSYWGQGTLVTVSS
(B) T0263018B11 Y32F (VHH, name in Kabat numbering, FLAG3-His6 tagged) VHH: EVQLVESGGGVVQPGGSLRLSCAASGFTFSSFAMYWVRQAPGKGLEWVSAISSGGGSTDYADSVKGRFTISRDNSKNTLYLQMNSLRPEDTALYYCAADTLYTSLTWYSYWGQGTLVTVSS
I'd appreciate it if you could identify which of A and B has the greater koff. Indicate which entry you chose by stating its label.
A
(A: 0.042 s⁻¹, B: 0.026 s⁻¹)
